System: U251 (human glioblastoma)
Metric: GI50

Look over these answered cases.
C=CCN1C(=O)C(OCc2ccccc2)C(OCc2ccccc2)C(OCc2ccccc2)C1COC(=O)Nc1ccc(Cl)cc1 (stereo not drawn) [Compound No. 41] :: > 664 µM
CCCN1C(=O)[C@H](OCc2ccccc2)[C@@H](OCc2ccccc2)[C@H](OCc2ccccc2)[C@H]1CNC(=S)NC(C)C [Compound No. 8] :: 2.5 µM
CCCN1C(=O)[C@H](OCc2ccccc2)[C@@H](OCc2ccccc2)[C@H](OCc2ccccc2)[C@H]1CNC(=O)N1CCN(c2ccc(Cl)cc2)CC1 [Compound No. 75] :: 8.8 µM
CCCN1C[C@H](OCc2ccccc2)[C@@H](OCc2ccccc2)[C@H](OCc2ccccc2)[C@H]1CNC(=O)Nc1ccc(F)cc1 [Compound No. 40] :: 20.1 µM
CCCN1C(=O)[C@H](O)[C@@H](O)[C@H](O)[C@H]1CNC(=O)Nc1ccc(N)cc1 [Compound No. 28] :: 557 µM

State, in one line, measured GI50 of CCCN1C(=O)[C@H](O)[C@@H](O)[C@H](O)[C@H]1CNC(=O)Nc1ccc(C)cc1 [Compound No. 26] 520 µM

###

Tested on: U251 (human glioblastoma)
Each record is given met if its reported GI50 is strictly below 20 µM. Records at or above 20 µM are given not met.

Example cases with answers are listed next.
CCCN1C(=O)C(O)C(O)C(O)C1CNC(=O)NC(C)C (stereo not shown) [Compound No. 30] :: not met
C=CCN1C(=O)C(OCc2ccccc2)C(OCc2ccccc2)C(OCc2ccccc2)C1CN1C(=O)CCC1=O (stereo not shown) [Compound No. 84] :: met
CCCN1C(=O)[C@H](OCc2ccccc2)[C@@H](OCc2ccccc2)[C@H](OCc2ccccc2)[C@H]1CNC(=O)N1CCN(c2ccc(F)cc2)CC1 [Compound No. 76] :: not met

Hello, I'm reviewing records and need to know if GI50 of CCCN1C(=O)[C@H](O)[C@@H](O)[C@H](O)[C@H]1CNC(=O)Nc1ccc(F)cc1 [Compound No. 29] is below 20 µM. Could you check? not met

Hello, I'm reviewing records and need to know if GI50 of CCCN1C(=O)[C@H](OCc2ccccc2)[C@@H](OCc2ccccc2)[C@H](OCc2ccccc2)[C@H]1CNC(=O)N1CC2C(C1)C2NC(C)=O (stereo partly shown) [Compound No. 79] is below 20 µM. Could you check? met

Hello, I'm reviewing records and need to know if GI50 of CCCN1C(=O)C(OCc2ccccc2)C(OCc2ccccc2)C(OCc2ccccc2)C1CNC(=O)Nc1ccc(Cl)cc1Cl (stereo not shown) [Compound No. 19] is below 20 µM. Could you check? not met

Hello, I'm reviewing records and need to know if GI50 of CCCN1C(=O)[C@H](OCc2ccccc2)[C@@H](OCc2ccccc2)[C@H](OCc2ccccc2)[C@H]1CNC(=O)Nc1ccc(F)cc1 [Compound No. 11] is below 20 µM. Could you check? met

###

Parameter 'readout' = GI50; parameter 'system' = U251 (human glioblastoma).
Unit µM implied. Number only.

CCCN1C(=O)[C@H](OCc2ccccc2)[C@@H](OCc2ccccc2)[C@H](OCc2ccccc2)[C@H]1CNC(=O)c1ccc(F)cc1F :: 155
CCCN1C(=O)[C@H](OCc2ccccc2)[C@@H](OCc2ccccc2)[C@H](OCc2ccccc2)[C@H]1CNC(=S)Nc1ccc(Cl)cc1 :: 3.6

Now for another entry.
Please respond with reported GI50 (system U251 (human glioblastoma)) for CCCN1C(=O)[C@H](OCc2ccccc2)[C@@H](OCc2ccccc2)[C@H](OCc2ccccc2)[C@H]1CNC(=O)CN1CCN(c2ccc(Cl)cc2)CC1 . 3.7
